System: MCF7 breast
ASSAY_SUMMARY: NCI-60 one-dose screen, 48 h
CONDITION_DESCRIPTION: 10 µM unless noted
About 83,000 compounds went through this panel and 20% of them were active in at least one assay; those are over-represented in the sample as a whole. Calls of active or inactive are those of the source. How the source made its calls: active means growth percent below 10; inactive means the rest.
Please answer using one outcome listed in TRUE for active, FALSE for inactive

* CC(C)(C)c1cc(Cl)c(O)c(CNCCO)c1 | FALSE
* CN(Cc1cnc2nc(N)nc(N)c2n1)c1ccc(C(=O)NC(CCC(=O)O)C(=O)O)cc1Br (stereo not given) | FALSE
* NS(=O)(=O)c1ccc(C(=O)NN2C(=O)c3c(Br)c(Br)c(Br)c(Br)c3C2=O)cc1 | FALSE

## Input Just curious, what result did O=C(O)COc1ccc(Cl)c(Cl)c1 get here?
## Output FALSE

## Input Just curious, what result did Nc1nc(N)c2c(n1)NC(c1cccc(Nc3ccnc4cc(C(F)(F)F)ccc34)c1)CC(c1ccccc1)=N2 (stereo not given) get here?
## Output FALSE

## Input Just curious, what result did C#CCO[C@H]1CC(CC#C)(CC#C)C(=O)[C@@H]2[C@H]1[C@H]1C[C@@H]3[C@@]4(C)CCC[C@@](C)(C(=O)OC)[C@@H]4CC[C@@]23C=C1C(C)C get here?
## Output FALSE

## Input Just curious, what result did COc1ccc2c(c1)c(-c1nc(-c3c[nH]c4ncccc34)cs1)cn2CCO get here?
## Output FALSE

## Input Just curious, what result did O=C(Nc1ncc(Cc2ccccc2)s1)c1ccc2c(c1)OCCCO2 get here?
## Output FALSE

## Input Just curious, what result did CCCCCCCCCCCCCCCCCCOc1ccccc1CC(=O)NCC[N+]1(C)CCCCC1 get here?
## Output FALSE

## Input Just curious, what result did COc1ccc(/C=C/C(=O)c2ccc(NC(=O)CSc3nc4c([nH]3)c(=O)n(C)c(=O)n4C)cc2)cc1OC get here?
## Output FALSE

## Input Just curious, what result did CCCCCCCCCCCCCOC(=O)c1c(C)[nH]c(/C=C2\N=C(c3ccc[nH]3)C=C2OC)c1C get here?
## Output FALSE

## Input Just curious, what result did COc1ccc(C(=O)Cn2c(C(=O)c3ccc(Cl)cc3)nc3ccccc32)cc1 get here?
## Output FALSE

## Input Just curious, what result did COC(=O)/C=C1/SC(=Nc2ccc([N+](=O)[O-])cc2)N(CCc2c[nH]c3ccc(O)cc23)C1=O get here?
## Output FALSE

## Input Just curious, what result did Fc1cccc(-c2ccc3c(c2)C2(CCNCC2)CN3)c1 get here?
## Output FALSE

## Input Just curious, what result did COc1cc(C(=O)c2c(-c3ccccc3)oc3c(OC)cccc23)cc(OC)c1OC get here?
## Output FALSE

## Input Just curious, what result did COc1cnc2c(c1)C(=O)c1c-2n(CCCCl)c(=O)c2ccncc12 get here?
## Output FALSE

## Input Just curious, what result did N#C/C(=C\c1cn(Cc2ccccc2)c2ccccc12)C(=O)Nc1ncc(Cc2ccccc2Cl)s1 get here?
## Output FALSE

====

Tested on: OVCAR-5 ovarian
ASSAY_SUMMARY: NCI-60 one-dose screen, 48 h
CONDITION_DESCRIPTION: 10 µM unless noted
This is part of a sample that, as a whole, favours compounds with a hit. Of some 83,000 tested, about 20% had one in any assay. Activity calls are given as the source filed them. Rule for the calls: active = growth percent below 10; inactive = the rest.
Please answer using one outcome listed in yes for active, no for inactive

Consider the following illustrative entries.
* COc1cc(OC)c2sc(-c3ccc(-n4cncc4-c4cc(OC)c(OC)c(OC)c4)cc3)nc2c1 | no
* O=C(NCc1cccc(CNC(=O)Nc2nc3ccccc3[nH]2)c1)Nc1nc2ccccc2[nH]1 | yes
* O=C(/C=C/C12c3ccccc3C(c3ccccc31)C1C(=O)NC(=O)C12)c1ccc(Br)cc1 (stereo not drawn) | no
* Cc1[nH]c(C2CC(c3ccc(C(F)(F)F)c(F)c3)=NN2c2ccccc2)c(C)c1C(=O)NCC(F)(F)F (stereo not drawn) | no
* O=C(NC(Cc1nnc2n(Cc3ccccc3)c(=O)c3c4c(sc3n12)CCCC4)c1ccccc1)c1ccccc1 (stereo not drawn) | no
* NC(=O)c1c(NC(=O)c2cccs2)sc2c1CCC(=O)C2 | no
* C=C1C(=O)O[C@H]2[C@H]1CC/C(COC(=O)/C=C/C(=O)OC/C1=C/CC[C@@]3(C)O[C@H]3[C@H]3OC(=O)C(=C)[C@@H]3CC1)=C\CC[C@@]1(C)O[C@@H]21 | no
* CO[C@H]1CC(=O)n2c3ccccc3c3c4c(c5c6ccccc6n1c5c32)C(=O)NC4=O | no

## Input Just curious, what result did C=C(C)[C@@H]1CC[C@]2(C(=O)N3CCN(C)CC3)CC[C@]3(C)[C@H](CC[C@@H]4[C@@]5(C)CC[C@H](OC(=O)c6ccccc6C(=O)O)C(C)(C)[C@@H]5CC[C@]43C)[C@@H]12 get here?
## Output no

## Input Just curious, what result did CC(=C(c1ccc(OCCN2CCCCC2)cc1)c1ccc(OCCN2CCCCC2)cc1)c1ccc(Cl)cc1 get here?
## Output yes
